tested on: promyelocyte leukemia cell strain HL-60; assay: Test for induction of cell differentiation in HL-60 cells (NBT reduction ability); format: cell-based; settings: compound alone, concentration -8 (1×10^−8 M); calculated from NBT reduction ability
Each item that follows carries a reported Ratio of cells for which differentiation was induced by each compound alone (%).
Form entry: value (%) — number only.

Use these answered entries as a reference point.
{"columns": ["structure smiles", "measured result"],
 "data": [
  ["Cc1cc2c(cc1C#Cc1ccc(O)c(=O)cc1)C(C)(C)CCC2(C)C", 73],
  ["COc1ccc(C(=O)Nc2ccc(O)c(=O)cc2)cc1C12CC3CC(CC(C3)C1)C2", 0.9],
  ["CC1(C)CCC(C)(C)c2cc(C=CC(=O)Nc3ccc(O)c(=O)cc3)ccc21", 0.7],
  ["CC1(C)CCC(C)(C)c2cc(-c3ccc(-c4ccc(O)c(=O)cc4)o3)ccc21", 2],
  ["CC1(C)CCC(C)(C)c2cc(S(=O)(=O)Nc3ccc(O)c(=O)cc3)ccc21", 1.3]
]}

Now look at this entry.
# return recorded Ratio of cells for which differentiation was induced by each compound alone (%) for entry CC1(C)CCC(C)(C)c2cc(C(=O)Nc3ccc(O)c(=O)cc3)ccc21
7

###

system: promyelocyte leukemia cell strain HL-60; experiment: Test for induction of cell differentiation in HL-60 cells (NBT reduction ability); type: cell-based; conditions: compound alone, concentration -7 (1×10^−7 M); calculated from NBT reduction ability
Listed below: Ratio of cells for which differentiation was induced by each compound alone (%) values for each entry.
Number only, in %; omit the unit.

{"columns": ["structure smiles", "system", "uom", "measured result"],
 "data": [
  ["Cc1cc2c(cc1C#Cc1ccc(O)c(=O)cc1)C(C)(C)CCC2(C)C", "promyelocyte leukemia cell strain HL-60", "%", 76],
  ["CC1(C)CCC(C)(C)c2cc(C=CC(=O)Nc3ccc(O)c(=O)cc3)ccc21", "promyelocyte leukemia cell strain HL-60", "%", 0.9],
  ["CC1(C)CCC(C)(C)c2cc(C=CC=CC(=O)Nc3ccc(O)c(=O)cc3)ccc21", "promyelocyte leukemia cell strain HL-60", "%", 0.5]
]}

Please report Ratio of cells for which differentiation was induced by each compound alone (%) for the following compound: CC1(C)CCC(C)(C)c2cc3sc(-c4ccc(O)c(=O)cc4)cc3cc21
20

Answer with the recorded Ratio of cells for which differentiation was induced by each compound alone (%) of CC1(C)CCC(C)(C)c2cc(C=CC(=O)Nc3ccc(Cl)c(=O)cc3)ccc21 only.
0.8

Please report Ratio of cells for which differentiation was induced by each compound alone (%) for the following compound: COc1ccc(C#Cc2ccc3c(c2)C(C)(C)CCC3(C)C)ccc1=O
3.3

Tell me Ratio of cells for which differentiation was induced by each compound alone (%) reported for Cc1cc2c(cc1C(=O)Nc1ccc(O)c(=O)cc1)C(C)(C)CCC2(C)C
5

Quick one: give measured Ratio of cells for which differentiation was induced by each compound alone (%) for Cc1cc2c(cc1Nc1ccc(O)c(=O)cc1)C(C)(C)CCC2(C)C
1.8

For the compound CC1(C)CCC(C)(C)c2cc(N=Nc3ccc(O)c(=O)cc3)ccc21 , give its reported Ratio of cells for which differentiation was induced by each compound alone (%).
34.4

###

Examples of compounds with documented Ratio of cells for which differentiation was induced by each compound alone (%) follow.
system: promyelocyte leukemia cell strain HL-60; experiment: Test for induction of cell differentiation in HL-60 cells (NBT reduction ability); assay type: cell-based; settings: compound alone, concentration -8 (1×10^−8 M); calculated from NBT reduction ability
# number only, unit % dropped from output

Solved entries (count: 2):
{"columns": ["structure smiles", "measured result"],
 "data": [
  ["CC1(C)CCC(C)(C)c2cc(C=CC(=O)Nc3ccc(Cl)c(=O)cc3)ccc21", 0.6],
  ["Cc1cc2c(cc1C(=O)Nc1ccc(O)c(=O)cc1)C(C)(C)CCC2(C)C", 0.7]
]}

Give the reported value of Ratio of cells for which differentiation was induced by each compound alone (%) for this record: CC(C)(C)c1cc(C#Cc2ccc(O)c(=O)cc2)cc(C(C)(C)C)c1
2.7

The origin of these recorded values is patent US20040082550A1.
